All figures here come from the supplement of paper PMC12613149.

# MEASUREMENT_NOTES: collision cross section (TIMS, N2 drift gas) of the primary ion; higher = larger gas-phase ion size
# CONDITION: ionization mode: ESI+; ion species: [M+H]+
If the reported collision cross section equals or exceeds 200 Å², assign label 1. If not, assign label 0.

See these solved cases before continuing.
MOLECULE | QUALITATIVE_LABEL
CCCCCCCCCCCCCCCCCCN | label 0
CCCCCCCCCCCCCCCC(=O)NCCO [Palmitoylethanolamide] | label 0
COc1cc(NS(=O)(=O)c2ccc(N)cc2)nc(OC)n1 | label 0
CCCCC(CC)COC(=O)c1ccc(C(=O)OCC(CC)CCCC)c(C(=O)OCC(CC)CCCC)c1 (centres undefined) [Tris(2-ethylhexyl)trimellitate] | label 1
CN1CCCC(n2nc(Cc3ccc(Cl)cc3)c3ccccc3c2=O)CC1 (centres undefined) | label 0

// query Dear colleague, could you confirm whether NC(=NCCCCCCN=C(N)N=C(N)Nc1ccc(Cl)cc1)N=C(N)Nc1ccc(Cl)cc1 has collision cross section at or above 200 Å²?
// result label 1

// query Dear colleague, could you confirm whether CCCN(CCOc1c(Cl)cc(Cl)cc1Cl)C(=O)n1ccnc1 has collision cross section at or above 200 Å²?
// result label 0

// query Dear colleague, could you confirm whether CC(C)(c1ccccc1)c1cc(-n2nc3ccccc3n2)c(O)c(C(C)(C)c2ccccc2)c1 has collision cross section at or above 200 Å²?
// result label 1

// query Dear colleague, could you confirm whether NC12CC3CC(CC(C3)C1)C2 has collision cross section at or above 200 Å²?
// result label 0
